Numbers sourced from ChEMBL document CHEMBL2380235.

species on record: Homo sapiens; assay: Selectivity ratio of Ke for human mu opioid receptor to Ke for human kappa opioid receptor
property.name: Ratio Ke
Please respond with just the number, no unit label.

Examples with their reported Ratio Ke follow.
- chemical.smiles: "Cc1cccc(Oc2ccc(C(=O)N[C@H](CN3CCN(c4cccc(O)c4)[C@@H](C)C3)C(C)C)cc2C)c1"
  reported.result: 89
- chemical.smiles: "CC(C)[C@@H](CN1CCN(c2cccc(O)c2)[C@@H](C)C1)NC(=O)c1ccc(Oc2cccc(Br)c2)cc1"
  reported.result: 35
- chemical.smiles: "Cc1cccc(Oc2ccc(C(=O)N[C@H](CN3CCN(c4cccc(O)c4)[C@@H](C)C3)C(C)C)cc2Cl)c1"
  reported.result: 148

QUERY: Fill in: Ratio Ke of Cc1cccc(Oc2ccc(C(=O)N[C@H](CN3CCN(c4cccc(O)c4)[C@@H](C)C3)C(C)C)cc2O)c1 is ___
RESULT: 24

QUERY: Fill in: Ratio Ke of CC(C)[C@@H](CN1CCN(c2cccc(O)c2)[C@@H](C)C1)NC(=O)c1ccc(Oc2ccccc2)cn1 is ___
RESULT: 36

====

biological target: Delta-type opioid receptor (Homo sapiens); test: Antagonist activity at human delta opioid receptor expressed in CHO cells assessed as inhibition of DPDPE-stimulated [35S]GTPgammaS binding; assay type: functional, cell-based
property.name: Ke (nM)
The reply should contain only the number, in nM.

QUERY: Fill in: Ke of CC(C)[C@@H](CN1CCN(c2cccc(O)c2)[C@@H](C)C1)NC(=O)c1ccc(Oc2cccc(O)c2)cc1 is ___
RESULT: 625

QUERY: Fill in: Ke of COc1cc(C(=O)N[C@H](CN2CCN(c3cccc(O)c3)[C@@H](C)C2)C(C)C)ccc1Oc1cccc(C)c1 is ___
RESULT: 93

QUERY: Fill in: Ke of CC(C)[C@@H](CN1CCN(c2cccc(O)c2)[C@@H](C)C1)NC(=O)c1ccc(Oc2ccccc2F)cc1 is ___
RESULT: 96

====

Entries and their Ke
target: Mu-type opioid receptor (Homo sapiens); settings: CHO
Description: Antagonist activity at human mu opioid receptor expressed in CHO cells assessed as inhibition of DAMGO-stimulated [35S]GTPgammaS binding
The reply should contain only the number, in nM.

Examples with their reported Ke follow.
- chemical.smiles: "Cc1cccc(Oc2ccc(C(=O)N[C@H](CN3CCN(c4cccc(O)c4)[C@@H](C)C3)C(C)C)cc2)c1"
  property.name: "Ke"
  reported.result: 13
- chemical.smiles: "CC(C)[C@@H](CN1CCN(c2cccc(O)c2)[C@@H](C)C1)NC(=O)c1ccc(Oc2ccccc2)cc1"
  property.name: "Ke"
  reported.result: 51
- chemical.smiles: "COc1ccc(Oc2ccc(C(=O)N[C@H](CN3CCN(c4cccc(O)c4)[C@@H](C)C3)C(C)C)cc2)cc1"
  property.name: "Ke"
  reported.result: 17
- chemical.smiles: "Cc1cccc(Oc2ccc(C(=O)N[C@H](CN3CCN(c4cccc(O)c4)[C@@H](C)C3)C(C)C)cc2Cl)c1"
  property.name: "Ke"
  reported.result: 43
- chemical.smiles: "Cc1ccc(O)c(Oc2ccc(C(=O)N[C@H](CN3CCN(c4cccc(O)c4)[C@@H](C)C3)C(C)C)cc2Cl)c1"
  property.name: "Ke"
  reported.result: 8.2

QUERY: Fill in: Ke of CC(C)[C@@H](CN1CCN(c2cccc(O)c2)[C@@H](C)C1)NC(=O)c1ccc(Oc2cccc(C(F)(F)F)c2)cc1 is ___
RESULT: 21

QUERY: Fill in: Ke of COc1ccccc1Oc1ccc(C(=O)N[C@H](CN2CCN(c3cccc(O)c3)[C@@H](C)C2)C(C)C)cc1 is ___
RESULT: 127

QUERY: Fill in: Ke of CC(C)[C@@H](CN1CCN(c2cccc(O)c2)[C@@H](C)C1)NC(=O)c1ccc(Oc2ccccc2F)cc1 is ___
RESULT: 21.1

QUERY: Fill in: Ke of CC(C)[C@@H](CN1CCN(c2cccc(O)c2)[C@@H](C)C1)NC(=O)c1ccc(Oc2ccc(O)cc2)cc1 is ___
RESULT: 71

QUERY: Fill in: Ke of CC(C)[C@@H](CN1CCN(c2cccc(O)c2)[C@H](C)C1)NC(=O)[C@H]1Cc2ccc(O)cc2CN1 is ___
RESULT: 49.4

QUERY: Fill in: Ke of CC(C)[C@@H](CN1CCN(c2cccc(O)c2)[C@@H](C)C1)NC(=O)c1ccc(Oc2cccc(O)c2)cc1 is ___
RESULT: 69

QUERY: Fill in: Ke of Cc1ccc(Oc2ccc(C(=O)N[C@H](CN3CCN(c4cccc(O)c4)[C@@H](C)C3)C(C)C)cc2)cc1 is ___
RESULT: 20

QUERY: Fill in: Ke of CC(C)[C@@H](CN1CCN(c2cccc(O)c2)[C@@H](C)C1)NC(=O)c1ccc(Oc2cccc(Cl)c2)cc1 is ___
RESULT: 18

QUERY: Fill in: Ke of CC(C)[C@@H](CN1CCN(c2cccc(O)c2)[C@@H](C)C1)NC(=O)[C@H]1Cc2ccc(O)cc2CN1 is ___
RESULT: 74.2

QUERY: Fill in: Ke of Cc1cccc(Oc2ccc(C(=O)N[C@H](CN3CCN(c4cccc(O)c4)[C@@H](C)C3)C(C)C)cc2)c1O is ___
RESULT: 23.8

QUERY: Fill in: Ke of CC(C)[C@@H](CN1CCN(c2cccc(O)c2)[C@@H](C)C1)NC(=O)c1ccc(Oc2ccccc2)cn1 is ___
RESULT: 101
